- Test system: Caco‐2
- experiment.summary: Intracellular ROS assay
- Format: cell-based
- stated.conditions: Homo sapiens, Caco-2, read-out: Intracellular ROS, percentage compared to the untreated control cells (ROS/SRB)
Readings of activity at 1 µM for the listed compounds
Write down the value, and be sure its unit follows.

Worked set:
{"columns": ["compound.structure.string", "activity at 1 µM"],
 "data": [
  ["O=C(/C=C(O)/C=C/c1ccc[nH]1)/C=C/c1c[nH]c2ccccc12", "410%"],
  ["COc1cc(/C=C/C(=O)/C=C(O)/C=C/c2ccc[nH]2)ccc1O", "125%"],
  ["COc1cc(/C=C/C(=O)/C=C(O)/C=C/c2ccnc3ccccc23)ccc1O", "94.2%"],
  ["COc1cc(/C=C/C(=O)/C=C(O)/C=C/c2ccncc2)ccc1O", "89.8%"],
  ["COc1cc(/C=C/C(=O)/C=C(O)/C=C/c2cccnc2)ccc1O", "106%"]
]}

Query (compound): O=C(/C=C(O)/C=C/c1ccc2ccccc2n1)/C=C/c1c[nH]c2ccccc12 ; field requested: activity at 1 µM
162%

Query (compound): COc1cc(/C=C/c2cc(/C=C/c3cccc4cnccc34)[nH]n2)ccc1O ; field requested: activity at 1 µM
108%

###

Readings of pIC50 for the listed compounds
- Test system: Caco‐2
- experiment.summary: Cytotoxicity, mitochondrial activity
- Type: cell-based
- stated.conditions: Homo sapiens, Caco-2, 72 h, read-out: IC50 MTT
Lab note — pIC50 values are minus log10 of concentrations in M.

Query (compound): O=C(/C=C(O)/C=C/c1cccnc1)/C=C/c1c[nH]c2ccccc12 ; field requested: pIC50
5.17

###

- Tested on: Caco‐2
- experiment.summary: Cytotoxicity, mitochondrial activity
- Type: cell-based
- stated.conditions: Homo sapiens, Caco-2, 72 h, read-out: IC50 MTT
measured.quantity: IC50

{"columns": ["molecule", "result"],
 "data": [
  ["O=C(/C=C(O)/C=C/c1ccc[nH]1)/C=C/c1c[nH]c2ccccc12", "6.5 µM"],
  ["COc1cccc2c1C(=O)c1c(O)c3c(c(O)c1C2=O)C[C@@](O)(C(=O)CO)C[C@@H]3O[C@H]1C[C@H](N)[C@H](O)[C@H](C)O1 [Dox, doxorubicin, reference compound]", "13 µM"],
  ["COc1cc(/C=C/C(=O)CC(=O)/C=C/c2ccc(O)c(OC)c2)ccc1O [Cur, curcumin, reference compound]", "47.6 µM"]
]}

Requested read-out IC50, target or system Caco‐2, entry COc1cc(/C=C/c2cc(/C=C/c3cccc4cnccc34)[nH]n2)ccc1O
58.7 µM
